# tested_on: InhA (Mycobacterium tuberculosis)
# Sequence (P9WGR1 whole entry, looked up): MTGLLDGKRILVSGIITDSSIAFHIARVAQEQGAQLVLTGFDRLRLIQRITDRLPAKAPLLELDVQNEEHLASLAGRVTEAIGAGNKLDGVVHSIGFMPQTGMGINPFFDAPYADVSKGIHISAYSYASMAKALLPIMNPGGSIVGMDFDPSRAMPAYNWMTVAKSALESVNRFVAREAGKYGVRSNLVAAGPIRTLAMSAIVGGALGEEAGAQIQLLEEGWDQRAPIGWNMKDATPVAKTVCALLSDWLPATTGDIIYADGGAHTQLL
pIC50: −log10 of the molar value.

{"smi": "O=C(NN=Cc1ccc(N2CCN(C3CCCCC3)CC2)cc1)c1ccncc1", "pIC50": 4.58}

====

# tested_on: InhA (Mycobacterium tuberculosis)
# Construct: made in house
# test_name: InhA inhibition (NADH oxidation at 340 nm, DDCoA substrate)
# Type: biochemical
# conditions: at 50 μM concentration; NI: No inhibition
inhibition at 50 µM reference

{"molecule": "O=C(NN=Cc1ccc(N2CCN(c3ccccn3)CC2)cc1)c1ccncc1 [IP8]", "inhibition at 50 µM": "< 10%"}
{"molecule": "O=C(NN=Cc1ccc(N2CCN(c3ccccc3F)CC2)cc1)c1ccncc1 [IP2]", "inhibition at 50 µM": "19%"}
{"molecule": "O=C(NN=Cc1ccc(N2CCN(c3ccccc3)CC2)cc1)c1ccncc1 [IP1]", "inhibition at 50 µM": "< 10%"}
{"molecule": "O=C(NN=Cc1ccc(N2CCN(c3ncccn3)CC2)cc1)c1ccncc1 [IP9]", "inhibition at 50 µM": "< 10%"}
{"molecule": "NC(=O)C1CCN(c2ccc(C=NNC(=O)c3ccncc3)cc2)CC1 [IP13]", "inhibition at 50 µM": "< 10%"}
